The origin of these recorded values is patent US20230081426A1.

Answer each item with its documented IC50.
molecular target: G12V-mutant human KRAS (amino acid residues 1-188) (Homo sapiens, UniProt P01116, G12V); construct: G12V-mutant human KRAS (amino acid residues 1-188) with FLAG tag was purified from E. coli; made in house; host or cells: E. coli; test: KRAS Binding Competition Assay (AlphaScreen; biotinylated KRpep-2d analogue), G12V; settings: geometric mean, read-out: KRAS GMean IC50 (uM) MUTATION: G12V

CN1CCC[C@H]1COc1nc(N2[C@@H]3CC[C@H]2CN(C(=O)CC#N)C3)c2ccc(-c3cc(O)cc4ccccc34)cc2n1 [P-0325]	0.0001 to 10 µM
CN1CCC[C@H]1COc1nc(N2CCC3CCC(C2)N3)c2cc(Cl)c(-c3cc(O)cc4ccccc34)c(F)c2n1 (stereo partly drawn) [P-0046]	10 to 100 µM

Now consider a different compound.
Return the recorded IC50 value; entry: O=C(CO)N1[C@@H]2CC[C@H]1CN(c1nc(OCC34CCCN3CCC4)nc3cc(-c4cc(O)cc5ccccc45)ccc13)C2 [P-0008] 0.0001 to 10 µM

---

biological target: G12V-mutant human KRAS (amino acid residues 1-188) (Homo sapiens, UniProt P01116, G12V); construct: G12V-mutant human KRAS (amino acid residues 1-188) with FLAG tag was purified from E. coli; made in house; host or cells: E. coli; test: KRAS Binding Competition Assay (AlphaScreen; biotinylated KRpep-2d analogue), G12V; settings: geometric mean, read-out: KRAS GMean IC50 (uM) MUTATION: G12V
Provide the recorded IC50 for the entries that follow.

CN1CCC[C@H]1COc1nc(N2CC3CCC2CN3)c2cc(Cl)c(-c3cc(O)cc4ccccc34)c(F)c2n1 (some centres unmarked) [P-0030]	10 to 100 µM
OCC(O)c1nc(N2C[C@H]3CC[C@@H](C2)N3)c2ccc(-c3cc(O)cc4ccccc34)c(F)c2n1 (some centres unmarked) [P-0459]	0.0001 to 10 µM
CN1CCC[C@H]1COc1nc(N2C[C@H]3CC[C@@H](C2)N3C(=O)[C@H]2CCCN2)c2ccc(-c3cc(O)cc4ccccc34)c(F)c2n1 [P-0403]	10 to 100 µM
Cc1ccc2[nH]ncc2c1-c1ccc2c(N3C[C@H]4CC[C@@H](C3)N4)nc(OC[C@@H]3CCCN3C)nc2c1 [P-0161]	100 to 1000 µM
O=C1NC(=O)C(CC(=O)N2[C@@H]3CC[C@H]2CN(c2nc(OCC45CCCN4CCC5)nc4c(F)c(-c5cc(O)cc6ccccc56)ccc24)C3)S1 (some centres unmarked) [P-0299]	0.0001 to 10 µM

Could you tell me IC50 for each of these compounds? They are listed below.
1. CN1CCC[C@H]1COc1nc(N2C[C@H]3CC[C@@H](C2)N3)c2ccc(-c3ccc(CO)s3)cc2n1 [P-0182]
2. C[C@@H](O)C(=O)N1[C@@H]2CC[C@H]1CN(c1nc(OC[C@@H]3CCCN3C)nc3c(F)c(-c4cc(O)cc5ccccc45)ccc13)C2 [P-0395]
3. Cc1cccc2cccc(-c3ccc4c(N5C[C@H]6CC[C@@H](C5)N6)nc(OCC56CCCN5CCC6)nc4c3F)c12 [P-0005]
4. CN1CCC[C@H]1COc1nc(N2C[C@H]3CC[C@@H](C2)N3C(=O)CC(N)=O)c2ccc(-c3cc(O)cc4ccccc34)c(F)c2n1 [P-0398]
5. CN(C)c1cccc(Oc2nc(N3C[C@H]4CC[C@@H](C3)N4)c3cc(Cl)c(-c4c(O)cccc4F)c(F)c3n2)c1 [P-0390]
6. Oc1cc(-c2ccc3c(N4[C@@H]5CC[C@H]4CNC5)nc(Cc4ccncc4)nc3c2)c2ccccc2c1 [P-0301]

100 to 1000 µM
0.0001 to 10 µM
10 to 100 µM
0.0001 to 10 µM
0.0001 to 10 µM
0.0001 to 10 µM

For every item in the list below, what is its measured IC50?
1. Oc1cc(-c2ccc3c(N4C[C@H]5CC[C@@H](C4)N5)nc(NCC45CCCN4CCC5)nc3c2F)c2ccccc2c1 [P-0631]
2. CN1CCC[C@H]1COc1nc(N2C[C@H]3CC[C@@H](C2)N3)c2cc(Cl)c(-c3c[nH]c4ccccc34)c(F)c2n1 [P-0318]

1. 10 to 100 µM
2. 10 to 100 µM

Note IC50 for the compound shown: CCN1CCC(NC(=O)N2C[C@H]3CC[C@@H](C2)N3c2nc(OC[C@@H]3CCCN3C)nc3cc(-c4cc(O)cc5ccccc45)ccc23)C1 (some centres unmarked) [P-0215] 100 to 1000 µM

---

biological target: G12C-mutant human KRAS (amino acid residues 1-188) (Homo sapiens, UniProt P01116, G12C); construct: G12D or G12C-mutant human KRAS (amino acid residues 1-188) with FLAG tag; made in house; host or cells: E. coli; test: KRAS Binding Disruption Assay (AlphaScreen; biotinylated KRpep-2d analogue or RAF1-RBD), G12C; settings: geometric mean, read-out: KRAS GMean IC50 (uM) MUTATION: G12C
ASSAY_METRIC: IC50

CN(C)CCNc1nc(N2C[C@H]3CC[C@@H](C2)N3)c2ccc(-c3cc(O)cc4ccccc34)cc2n1 [P-0022]	10 to 100 µM
CCc1cc2c(N3C[C@H]4CC[C@@H](C3)N4)nc(OC[C@@H]3CCCN3C)nc2c(F)c1-c1cc(O)cc2ccccc12 [P-0013]	0.0001 to 10 µM
Oc1cc(-c2ccc3c(N4C[C@H]5CC[C@@H](C4)N5)nc(OCCn4cncn4)nc3c2F)c2ccccc2c1 [P-0689]	10 to 100 µM
Fc1c(-c2c[nH]c3cccc(C(F)(F)F)c23)ccc2c(N3C[C@H]4CC[C@@H](C3)N4)nc(OCC34CCCN3CCC4)nc12 [P-0723]	0.0001 to 10 µM
CN1C(=O)CCC1COc1nc(N2C[C@H]3CC[C@@H](C2)N3)c2ccc(-c3cc(O)cc4ccccc34)c(F)c2n1 (stereo partly shown) [P-0742]	10 to 100 µM

I would be grateful if you could provide IC50 for each of the following entries.
1. CN1CCC[C@H]1COc1nc(N2C[C@H]3CC[C@@H](C2)N3)c2ccc(-c3nccc4cccc(Cl)c34)c(F)c2n1 [P-0728]
2. Oc1cc(-c2ccc3c(N4C[C@H]5CC[C@@H](C4)N5)nc(OCC4CC(F)(F)C4(F)F)nc3c2F)c2ccccc2c1 (stereo partly shown) [P-0740]

1: 100 to 1000 µM; 2: 10 to 100 µM

---

target: G12C-mutant human KRAS (amino acid residues 1-188) (Homo sapiens, UniProt P01116, G12C); construct: G12D or G12C-mutant human KRAS (amino acid residues 1-188) with FLAG tag; made in house; host or cells: E. coli; test: KRAS Binding Disruption Assay (AlphaScreen; biotinylated KRpep-2d analogue or RAF1-RBD), G12C; details: geometric mean, read-out: KRAS GMean IC50 (uM) MUTATION: G12C
ASSAY_METRIC: IC50

Sample records with IC50:
CN1C[C@H](O)C[C@H]1COc1nc(N2C[C@H]3CC[C@@H](C2)N3)c2ccc(-c3cc(O)cc4ccccc34)c(F)c2n1	0.0001 to 10 µM
Oc1cc(-c2ccc3c(N4C[C@H]5CC[C@@H](C4)N5)nc(OC4CCC(O)CC4)nc3c2F)c2ccccc2c1 (stereo partly drawn)	10 to 100 µM
NCCCN1CCC[C@H]1COc1nc(N2C[C@H]3CC[C@@H](C2)N3)c2ccc(-c3cc(O)cc4ccccc34)c(F)c2n1	0.0001 to 10 µM
Oc1cc(-c2ccc3c(N4C[C@H]5CC[C@@H](C4)N5)nc(OCCn4cccn4)nc3c2F)c2ccccc2c1	10 to 100 µM
Oc1cc(-c2ccc3c(N4C[C@H]5CC[C@@H](C4)N5)nc(OCC45CCCCN4CCC5)nc3c2)c2ccccc2c1 (stereo partly drawn)	0.0001 to 10 µM
Fc1c(-c2c[nH]c3cccc(F)c23)c(Cl)cc2c(N3C[C@H]4CC[C@@H](C3)N4)nc(OCC34CCCN3CCC4)nc12	10 to 100 µM
Cc1cccc2cccc(-c3ccc4c(N5C[C@H]6CC[C@@H](C5)N6C(=O)CC#N)nc(OCC56CCCN5CCC6)nc4c3F)c12	0.0001 to 10 µM
Oc1cc(-c2c(Cl)cc3c(N4C[C@H]5CC[C@@H](C4)N5)nc(OCC45CCCN4CCC5)nc3c2F)c2ccccc2c1	0.0001 to 10 µM

For every item below, please supply its IC50.
1. OCCCc1nc(N2C[C@H]3CC[C@@H](C2)N3)c2ccc(-c3cc(O)cc4ccccc34)c(F)c2n1
2. O=C1CCCN1CCOc1nc(N2C[C@H]3CC[C@@H](C2)N3)c2ccc(-c3cc(O)cc4ccccc34)c(F)c2n1
3. CC(C)(COc1nc(N2C[C@H]3CC[C@@H](C2)N3)c2ccc(-c3cc(O)cc4ccccc34)c(F)c2n1)C(=O)O
4. CCc1c(F)ccc2[nH]cc(-c3c(F)cc4c(N5C[C@H]6CC[C@@H](C5)N6)nc(OCC56CCCN5CCC6)nc4c3F)c12

100 to 1000 µM
10 to 100 µM
10 to 100 µM
0.0001 to 10 µM

For every record below, what is its IC50?
1. CN1CCC[C@H]1COc1nc(N2C[C@H]3CC[C@@H](C2)N3)c2ccc(-c3cc(O)cc4ccccc34)c(F)c2n1
2. O=C(O)CCC(=O)N1[C@@H]2CC[C@H]1CN(c1nc(OCC34CCCN3CCC4)nc3cc(-c4cc(O)cc5ccccc45)ccc13)C2
3. CC(C)(COc1nc(N2C[C@H]3CC[C@@H](C2)N3)c2ccc(-c3cc(O)cc4ccccc34)c(F)c2n1)NS(C)(=O)=O
4. CC(=O)NCCc1nc(N2C[C@H]3CC[C@@H](C2)N3)c2ccc(-c3cc(O)cc4ccccc34)c(F)c2n1
5. CC(C)(O)COc1nc(N2C[C@H]3CC[C@@H](C2)N3)c2ccc(-c3cc(O)cc4ccccc34)c(F)c2n1
6. CCN1CCC[C@H]1COc1nc(N2C[C@H]3CC[C@@H](C2)N3)c2ccc(-c3cc(O)cc4ccccc34)c(F)c2n1
7. Oc1cc(-c2ccc3c(N4C[C@H]5CC[C@@H](C4)N5)nc(NCC4(O)CCC4)nc3c2F)c2ccccc2c1

["0.0001 to 10 µM", "0.0001 to 10 µM", "10 to 100 µM", "10 to 100 µM", "10 to 100 µM", "0.0001 to 10 µM", "100 to 1000 µM"]

Below is a list of compounds. For each, state its recorded IC50.
1. O=C(NCC1CCNC1)N1[C@@H]2CC[C@H]1CN(c1nc(OCC34CCCN3CCC4)nc3cc(-c4cc(O)cc5ccccc45)ccc13)C2 (stereo partly drawn)
2. CN1CCC[C@H]1COc1nc(N2C[C@H]3CC[C@@H](C2)N3C(=O)CCn2cccn2)c2ccc(-c3cc(O)cc4ccccc34)cc2n1
3. Fc1ccc2[nH]cc(-c3ccc4c(N5C[C@H]6CC[C@@H](C5)N6)nc(OCC56CCCN5CCC6)nc4c3F)c2c1Cl
4. Oc1cc(-c2ccc3c(N4C[C@H]5CC[C@@H](C4)N5)nc(OCC45CCCN4CCC5)nc3c2F)c2ccccc2c1
5. Oc1cc(-c2ccc3c(N4C[C@H]5CC[C@@H](C4)N5)nc(OCc4ncco4)nc3c2F)c2ccccc2c1

1. 0.0001 to 10 µM
2. 0.0001 to 10 µM
3. 0.0001 to 10 µM
4. 0.0001 to 10 µM
5. 10 to 100 µM

Parameter requested: IC50. Apply to each item below.
1. CCc1c(F)ccc2[nH]cc(-c3ccc4c(N5C[C@H]6CC[C@@H](C5)N6)nc(OCC56CCCN5CCC6)nc4c3F)c12
2. CN1CCC[C@H]1COc1nc(N2C[C@H]3CC[C@@H](C2)N3)c2cc(F)c(-c3n[nH]c4ccccc34)c(F)c2n1

1: 0.0001 to 10 µM; 2: 100 to 1000 µM

Please list IC50 recorded for the compound `CN1CC2(C1)CN(c1nc(N3C[C@H]4CC[C@@H](C3)N4)c3ccc(-c4cc(O)cc5ccccc45)c(F)c3n1)C2` 10 to 100 µM
